assay: Recovery of steroid glycoside and free steroid from intestinal contents and tissues after intragastric administration; assay type: in vivo, Sprague-Dawley rats; conditions: rat, in vivo, po, 3 h after oral administration, rat; read-out: dose recovered (intact) from the intestinal lumen
readout.type: recovery at 3 h (%)
Numbers only, in %.

Prompt line: Report measured recovery at 3 h; entry is CC1CC2C3CCC4=CC(=O)C=CC4(C)C3(F)C(O)CC2(C)C1(O)C(=O)COC1OC(CO)C(O)C(O)C1O (stereo not shown) [Compound 1]
Response line: 78

* * *

I'd appreciate it if you could supply Sp. act. values for the items below.
assay: Rate of hydrolysis in homogenized proximal small intestine contents; conditions: PSI contents; 1.0 mM prodrug, 37 C; release of free steroid by HPLC
Numbers only, in nmoles/min/g wet weight.

                                   compound  readout_type  assay_value
0  CC12CCC(=O)C=C1CCC1C3CCC(O)(C(=O)COC4OC(CO)C(O)C(O)C4O)C3(C)CC(O)C12F (centres unmarked) [Compound 7]      Sp. act.         12.3
1  CC12C=CC(=O)C=C1CCC1C2C(O)CC2(C)C1CCC2(O)C(=O)COC1OC(CO)C(O)C(O)C1O (centres unmarked) [Compound 10]      Sp. act.         49.3
2  CC12CCC(=O)C=C1CCC1C2C(O)CC2(C)C1CCC2(O)C(=O)COC1OC(CO)C(O)C(O)C1O (centres unmarked) [Compound 11]      Sp. act.         42.5
3  CC12C=CC(=O)C=C1CCC1C2C(O)CC2(C)C1CCC2(O)C(=O)COC1OC(CO)C(OC2OC(CO)C(O)C(O)C2O)C(O)C1O (centres unmarked)      Sp. act.         26.0

Next compound, please.
Prompt line: Report measured Sp. act.; entry is CC12CCC(=O)C=C1CCC1C3CCC(O)(C(=O)COC4OC(CO)C(O)C(O)C4O)C3(C)CC(O)C12F (centres unmarked) [Compound 12]
Response line: 12.5

* * *

assay: Rate of hydrolysis in homogenized stomach contents; conditions: 1.0 mM prodrug, 37 C, release of free steroid by HPLC
readout.type: Sp. act.

Recorded results for 3 molecules are shown here.
>>> df
                                   molecule                  assay_value
0  CC12CCC(=O)C=C1CCC1C3CCC(O)(C(=O)COC4OC(CO)C(O)C(O)C4O)C3(C)CC(O)C12F (stereo not drawn) [Compound 7]  7.7 nmoles/min/g wet weight
1  CC1CC2C3CCC4=CC(=O)C=CC4(C)C3(F)C(O)CC2(C)C1(O)C(=O)COC1OC(CO)C(O)C(O)C1O (stereo not drawn) [Compound 9]  2.0 nmoles/min/g wet weight
2  CC1CC2C3CCC4=CC(=O)C=CC4(C)C3(F)C(O)CC2(C)C1(O)C(=O)COC1OC(CO)C(O)C(O)C1O (stereo not drawn) [Compound 1]  6.8 nmoles/min/g wet weight

Would you mind giving Sp. act. for every molecule in the list below?
1. CC12CCC(=O)C=C1CCC1C2C(O)CC2(C)C1CCC2(O)C(=O)COC1OC(CO)C(O)C(O)C1O (stereo not drawn) [Compound 5]
2. CC12C=CC(=O)C=C1CCC1C2C(O)CC2(C)C1CCC2(O)C(=O)COC1OC(CO)C(O)C(O)C1O (stereo not drawn) [Compound 2]
3. CC12C=CC(=O)C=C1CCC1C2C(O)CC2(C)C1CCC2(O)C(=O)COC1OC(CO)C(O)C(O)C1O (stereo not drawn) [Compound 10]

Response line:
5.5 nmoles/min/g wet weight
6.8 nmoles/min/g wet weight
12.1 nmoles/min/g wet weight

* * *

I'd appreciate it if you could supply Sp. act. values for the items below.
assay: Rate of hydrolysis in homogenized distal small intestine contents; settings: DSI contents; 1.0 mM prodrug, 37 C; release of free steroid by HPLC

Recorded results for 4 compounds are shown here.
>>> df
                                   compound                   assay_value
0  CC12CCC(=O)C=C1CCC1C2C(O)CC2(C)C1CCC2(O)C(=O)COC1OC(CO)C(O)C(O)C1O (centres unmarked) [Compound 11]   110 nmoles/min/g wet weight
1  CC12CCC(=O)C=C1CCC1C3CCC(O)(C(=O)COC4OC(CO)C(O)C(O)C4O)C3(C)CC(O)C12F (centres unmarked) [Compound 7]  33.0 nmoles/min/g wet weight
2  CC1CC2C3CCC4=CC(=O)C=CC4(C)C3(F)C(O)CC2(C)C1(O)C(=O)COC1OC(CO)C(O)C(O)C1O (centres unmarked) [Compound 9]  29.3 nmoles/min/g wet weight
3  CC12C=CC(=O)C=C1CCC1C2C(O)CC2(C)C1CCC2(O)C(=O)COC1OC(CO)C(O)C(O)C1O (centres unmarked) [Compound 2]  56.8 nmoles/min/g wet weight

Next compound, please.
Prompt line: Report measured Sp. act.; entry is CC12C=CC(=O)C=C1CCC1C2C(O)CC2(C)C1CCC2(O)C(=O)COC1OC(CO)C(O)C(O)C1O (centres unmarked) [Compound 10]
Response line: 122 nmoles/min/g wet weight

* * *

I'd appreciate it if you could supply logD at 0.5 h values for the items below.
assay: physchem; type: physicochemical; details: 0.01 m phosphate buffer, pH 7, Log P
Numbers only.

                                   molecule  assay_value
0  C[C@]12CCC(=O)C=C1CC[C@H]1[C@@H]3CC[C@](O)(C(=O)CO)[C@@]3(C)C[C@H](O)[C@@]12F         1.73

Next molecule, please.
Prompt line: Report measured logD at 0.5 h; entry is CC12C=CC(=O)C=C1CCC1C2C(O)CC2(C)C1CCC2(O)C(=O)COC1OC(CO)C(OC2OC(CO)C(O)C(O)C2O)C(O)C1O (centres unmarked)
Response line: -0.56

* * *

I'd appreciate it if you could supply recovery at 4 h values for the items below.
test: Recovery of steroid glycoside and free steroid from intestinal contents and tissues after intragastric administration; format: in vivo, Sprague-Dawley rats; conditions: rat, in vivo, po, 7.5 mg, 4 h after 7.5 mg glucoside, rat; read-out: administered dose recovered from the lower small intestine contents unhydrolyzed
// return the numeric value with its unit appended

                                   compound  assay_value
0  CC1CC2C3CCC4=CC(=O)C=CC4(C)C3(F)C(O)CC2(C)C1(O)C(=O)COC1OC(CO)C(O)C(O)C1O (centres unmarked)          59%

Prompt line: Report measured recovery at 4 h; entry is CC12C=CC(=O)C=C1CCC1C2C(O)CC2(C)C1CCC2(O)C(=O)COC1OC(CO)C(O)C(O)C1O (centres unmarked)
Response line: 14.8%

* * *

assay: Rate of hydrolysis in homogenized cecal contents; details: cecal contents; 1.0 mM prodrug, 37 C; release of free steroid by HPLC
I'd appreciate it if you could supply Tot. act. values for the items below.
One number for each entry, in µmol/min.

>>> df
                                   compound  readout_type  measurement_unit  assay_value
0  CC12C=CC(=O)C=C1CCC1C2C(O)CC2(C)C1CCC2(O)C(=O)COC1OC(CO)C(O)C(O)C1O (stereo not shown) [Compound 2]     Tot. act.          µmol/min          6.6
1  CC12CCC(=O)C=C1CCC1C2C(O)CC2(C)C1CCC2(O)C(=O)COC1OC(CO)C(O)C(O)C1O (stereo not shown) [Compound 5]     Tot. act.          µmol/min         0.76
2  CC12CCC(=O)C=C1CCC1C3CCC(O)(C(=O)COC4OC(CO)C(O)C(O)C4O)C3(C)CC(O)C12F (stereo not shown) [Compound 7]     Tot. act.          µmol/min          1.4

Next compound, please.
Prompt line: Report measured Tot. act.; entry is CC12CCC(=O)C=C1CCC1C2C(O)CC2(C)C1CCC2(O)C(=O)COC1OC(CO)C(O)C(O)C1O (stereo not shown) [Compound 11]
Response line: 11.9

* * *

assay: Rate of hydrolysis in homogenized cecal contents; conditions: cecal contents; 1.0 mM prodrug, 37 C; release of free steroid by HPLC
I'd appreciate it if you could supply log10(Sp. act.) values for the items below.
Annotation: log10 of Sp. act., nmoles/min/g wet weight basis.

Recorded results for 5 molecules are shown here.
>>> df
                                   molecule     readout_type  assay_value
0  CC12C=CC(=O)C=C1CCC1C2C(O)CC2(C)C1CCC2(O)C(=O)COC1OC(CO)C(O)C(O)C1O (stereo not drawn) [Compound 2]  log10(Sp. act.)         2.42
1  CC12C=CC(=O)C=C1CCC1C2C(O)CC2(C)C1CCC2(O)C(=O)COC1OC(CO)C(O)C(O)C1O (stereo not drawn) [Compound 10]  log10(Sp. act.)         2.82
2  CC12C=CC(=O)C=C1CCC1C2C(O)CC2(C)C1CCC2(O)C(=O)COC1OC(CO)C(OC2OC(CO)C(O)C(O)C2O)C(O)C1O (stereo not drawn)  log10(Sp. act.)         2.04
3  CC1CC2C3CCC4=CC(=O)C=CC4(C)C3(F)C(O)CC2(C)C1(O)C(=O)COC1OC(CO)C(O)C(O)C1O (stereo not drawn) [Compound 1]  log10(Sp. act.)         2.15
4  CC12CCC(=O)C=C1CCC1C2C(O)CC2(C)C1CCC2(O)C(=O)COC1OC(CO)C(O)C(O)C1O (stereo not drawn) [Compound 5]  log10(Sp. act.)         1.48

Would you mind giving log10(Sp. act.) for every molecule in the list below?
1. CC12CCC(=O)C=C1CCC1C3CCC(O)(C(=O)COC4OC(CO)C(O)C(O)C4O)C3(C)CC(O)C12F (stereo not drawn) [Compound 12]
2. CC1CC2C3CCC4=CC(=O)C=CC4(C)C3(F)C(O)CC2(C)C1(O)C(=O)COC1OC(CO)C(O)C(O)C1O (stereo not drawn) [Compound 9]

Response line:
2.81
2.51

Would you mind giving log10(Sp. act.) for every molecule in the list below?
1. CC12CCC(=O)C=C1CCC1C2C(O)CC2(C)C1CCC2(O)C(=O)COC1OC(CO)C(O)C(O)C1O (stereo not drawn) [Compound 11]
2. CC12CCC(=O)C=C1CCC1C3CCC(O)(C(=O)COC4OC(CO)C(O)C(O)C4O)C3(C)CC(O)C12F (stereo not drawn) [Compound 7]

Response line:
1. 2.77
2. 1.62
